test system: NCI-H322M lung; experiment: NCI-60 one-dose screen, 48 h (100 = growth as untreated, 0 = no growth, -100 = all killed); details: 10 µM unless noted
This is part of a sample that, as a whole, favours compounds with a hit. Of some 83,000 tested, about 20% had one in any assay.
Our labelling divides records by growth into ranges: one = under 50%, two = from 50% up to 90%, three = 90% and over

Exam item: assign "Cn1c(N)c(N=O)c(=O)[nH]c1=O" to the correct category.
three

Exam item: assign "COc1cc(OC)c2cc(C(=O)O)c(=O)oc2c1" to the correct category.
two

Exam item: assign "c1ccc(-n2nnnc2-c2cccc3ccccc23)cc1" to the correct category.
one

Exam item: assign "COc1ccc2c(c1)C(=O)/C(=C/c1ccc([N+](=O)[O-])s1)O2" to the correct category.
one

Exam item: assign O=C(/C=C/c1cccnc1)NCCCCC1CCCN(C(=O)c2ccccc2)C1 (stereo not drawn) to the correct category.
two

Exam item: assign "COc1ccc(/C=N\Nc2ccc([N+](=O)[O-])cn2)cc1OC" to the correct category.
one

Exam item: assign "CC/C(=C\c1ccc(N(C)C)cc1)c1nc2ccccc2c(=O)[nH]1" to the correct category.
three

Exam item: assign "CCN(CC)c1ccc(CN(CC(=O)c2ccc(Cl)c(Cl)c2)Cc2ccccc2)cc1" to the correct category.
three

Exam item: assign "Cc1c(C(N)=O)sc2ncn(Cc3ccccc3)c(=O)c12" to the correct category.
two

Exam item: assign "C[n+]1c2ccccc2c(Nc2ccc(N3CCCCC3)cc2)c2[nH]c3ccccc3c21" to the correct category.
one

Exam item: assign "O=C1OCCCCCCCCCC#Cc2ccccc21" to the correct category.
three

Exam item: assign "O=C(CSCC(=O)N/N=C/c1ccccc1O)N/N=C\c1ccccc1O" to the correct category.
one

Exam item: assign "Cc1cc(C(C)(C)C)cc(C)c1CC1=NCCN1" to the correct category.
three

Exam item: assign "COc1ccc(-c2csc(NC(=O)c3cc(O)c(O)c(O)c3)n2)cc1" to the correct category.
two

Exam item: assign "O=C1NCN(CCO)CN1" to the correct category.
three

Exam item: assign CC(NC(=O)C(C)Oc1ccc(Cl)cc1Cl)C(=O)O (stereo not drawn) to the correct category.
three

Exam item: assign "O=C1C[C@@H]2/C(=C(O)\C=C\c3ccccc3)C(=O)C=C[C@@H]2O1" to the correct category.
one

Exam item: assign "O=C(Nc1ccc(C2=NCCCN2)cc1)Nc1ccc(C2=NCCCN2)cc1" to the correct category.
three

Exam item: assign "COc1ccc2c(c1)nc(N)c1c3cc(C)c(C)cc3cn21" to the correct category.
three

Exam item: assign "O=C(Nc1ccc(Cl)cc1)c1cc2c(cc1O)[nH]c1ccccc12" to the correct category.
one

----------
system: UACC-257 melanoma; assay: NCI-60 one-dose screen, 48 h; details: 10 µM unless noted
This is part of a sample that, as a whole, favours compounds with a hit. Of some 83,000 tested, about 20% had one in any assay. Activity calls are given as the source filed them. The calls were made as follows: active = growth percent below 10; inactive = the rest.
Valid outcomes are listed here; reply with one: active, inactive

Outcome? "Cn1cc(-c2csc(-c3c[nH]c4ncccc34)n2)c2cc(F)cnc21"
inactive

Outcome? "O=C1/C(=N/O)CCc2ccccc21"
inactive

Outcome? "CC1(C)OC(=O)C(=Cc2ccccc2Br)C(=O)O1"
inactive

Outcome? COc1cccc2c1C(=O)c1c(O)c3c(c(O)c1C2=O)C[C@@](O)(/C(C)=N/NC(=O)c1cccc([N+](=O)[O-])c1)C[C@@H]3OC1CC(N)C(O)C(C)O1 (some centres undefined)
active

Outcome? CO[C@H]1/C=C/O[C@@]2(C)Oc3c(C)c(O)c4c(O)c(c(/C=N/N5CCN(C)CC5)c(O)c4c3C2=O)NC(=O)/C(C)=C\C=C\C(C)[C@H](O)[C@@H](C)[C@@H](O)[C@@H](C)[C@@H](OC(C)=O)[C@@H]1C (some centres undefined)
inactive

Outcome? "O=C(Nc1ccc(Cl)cc1)Nc1ccc(Oc2nncc3ccccc23)cc1"
inactive

Outcome? "COc1ccc(-c2cnnn2-c2cc(OC)c3c(c2)OCO3)cc1"
inactive

Outcome? "c1ccc(Nc2nnc(-c3cc(-c4cccnc4)n(-c4ccccc4)n3)s2)cc1"
inactive

Outcome? "CC(=O)c1cc(C(=O)c2ccc3c(c2)Sc2ccccc2N3)c2c(C)cc(C)cn12"
inactive

Outcome? "CN(CC(=O)N(Cc1ccc(C2CCCCC2)cc1)c1ccc(C(=O)O)cc1)S(=O)(=O)c1c(F)c(F)c(F)c(F)c1F"
inactive

Outcome? "Cc1cc(CC(=O)O)n(C)c1C(=O)c1ccc(Cl)cc1"
inactive

Outcome? "COc1ccc2c(c1)C(=O)/C(=C/c1cccc(OCC(=O)c3ccccc3)c1)CC2"
inactive

Outcome? "CC[C@@H]1OC(=O)[C@H](C)[C@@H](O[C@H]2C[C@@](C)(OC)[C@@H](O)[C@H](C)O2)[C@H](C)[C@@H](O[C@@H]2O[C@H](C)C[C@H](N(C)C)[C@H]2O)[C@](C)(O)C[C@@H](C)[C@@H]2N[C@@H](COCCOC)O[C@H]([C@H]2C)[C@]1(C)O"
inactive

Outcome? "N#Cc1c(N2CCOCC2)nc2sc3cc(Cl)ccc3n2c1=N"
inactive

Outcome? "NC(N)=NC(N)=NCCCc1ccccc1"
inactive

Outcome? "CC(C)(C)c1cc(O)c(O)c(C(C)(C)C)c1"
inactive

Outcome? CSc1ccc2c(c1)N(CCC1CCCCN1C)c1ccccc1S2 (centres undefined)
inactive

Outcome? "O=C(Nc1ccc(Cl)cc1)Nc1ccc(Nc2nncc3ccccc23)cc1"
inactive

Outcome? "CN(C)c1cccc2c(S(=O)(=O)N[C@H]3CC[C@H]4[C@@H]5CCc6cc(O)ccc6[C@H]5CC[C@]34C)cccc12"
inactive
